In this section, each of the compounds is paired with its reported TGI.
- System: MALME-3M melanoma
- test name: NCI tumour cell line growth inhibition, 48 h

compound	target or system	TGI
Cc1[nH]n(-c2cccc(Cl)c2)c(=O)c1/C=C1\C=c2ccccc2=CC1=O	MALME-3M melanoma	> 100 µM
CC1(O)COCCCCOc2c(CN)cccc2NC(=O)c2nc(cnc2N)-c2ccc(cc2)S(=O)(=O)C(C)(C)C1 (centres undefined)	MALME-3M melanoma	3.43 µM
CCOC(=O)CC(=O)CSc1c(-c2ccccc2)c(=O)n(-c2ccccc2)c(=S)n1-c1ccccc1	MALME-3M melanoma	> 100 µM
O=C(Nc1ncc([N+](=O)[O-])s1)c1ccccc1O	MALME-3M melanoma	77.2 µM
CC12CC(=O)C3C(CCC4=CC(=O)CCC43C)C1CC=C2CC(=O)O (centres undefined)	MALME-3M melanoma	> 100 µM

Q: Which TGI value belongs to "Cc1cc2c(cc1C)C(=O)/C(=C/c1ccccc1C(=O)O)C2" ?
Result: > 100 µM

Q: Queued: CC(C)(C)OC(=O)NC(CS(=O)(=O)O)C(=O)O (centres undefined)
Result: > 100 µM

Q: Note, next up: Cn1cc(C2=C(c3c(S(C)=O)n(C)c4ccccc34)C(=O)NC2=O)c2ccccc21 (centres undefined)
Result: > 25 µM

Q: Now the same for "COC(=O)[C@]12CC[C@@H](C)[C@H](C)[C@@H]1C1=CC[C@@H]3[C@@]4(C)CC(=O)[C@H](O)[C@@](C)(CO)[C@@H]4C(=O)C[C@@]3(C)[C@]1(C)CC2"
Result: 22 µM

----------
Catalogue of TGI readings, one per entry.
- Test system: DU-145 prostate
- test name: NCI tumour cell line growth inhibition, 48 h

compound	TGI
OCCCCCCCCCCCOc1ccc(C2OCC3(CC=CCC3)CO2)cc1 (stereo not drawn)	32.6 µM
Cc1cc2cc3ccccc3cc2c(=O)[nH]1	> 10 µM
COc1ccc2c(c1)CCc1c-2n(CCN2CCOCC2)c2ccc(OC)cc12	> 100 µM

Q: Item CCN1C(=O)N(CC)C2C1NN=c1s/c(=C\c3ccc(OC)cc3)c(=O)n12 (stereo not drawn) has what recorded TGI?
Result: > 29.8 µM

Q: # iterate: "c1ccc2c3nnc(c2c1)SCCCSc1nnc(c2ccccc12)SCCCS3"
Result: > 100 µM

----------
Recorded measurements of TGI, one per entry
- Tested on: MOLT-4 leukemia
- test name: NCI tumour cell line growth inhibition, 48 h

compound	result
N#CC1CCCCC1NC1(C#N)CCCCC1 (centres undefined)	> 100 µM
CCCCCCC1CC(=O)C1(Cl)Cl (centres undefined)	52.1 µM
CCCc1n(Cc2ccc3ccccc3n2)cc[n+]1Cc1ccc2ccccc2n1	16.5 µM
O=C(NCCCNCCCCNCCCNC(=O)c1cc(-c2ccccc2)nc2ccccc12)c1cc(-c2ccccc2)nc2ccccc12	3.73 µM
C#Cc1ccc(-n2c(/C=C/c3ccc4ccccc4c3)nc3ncccc3c2=O)cc1	> 100 µM
CCCCCC1=C2C(c3ccc(OC)cc3)=C(N)C(c3ccc(OC)cc3)=C3NC(=O)C(C=C1)C32 (centres undefined)	> 100 µM

Q: What value of measured TGI is listed for "COc1cc(Cn2c(SCC(=O)Nc3ccc(Cl)cc3)nc3ccccc3c2=O)cc(OC)c1OC" ?
Result: > 100 µM

Q: Repeat with Cc1ccc(S(=O)(=O)CC2(Br)CCc3ccccc3C2=O)cc1 (centres undefined)
Result: > 100 µM

Q: Likewise for "O=C1OCCC[C@H]2O[C@@H](COCc3ccccc3)C[C@@H]12" ?
Result: > 100 µM

Q: Next: COC(=O)/C=C(\C)CC/C=C(\C)CCC(O)C(C)(C)O (centres undefined)
Result: 39 µM

Q: Moving on to "CN(C)c1ccc(/C=c2/c3ccccc3n3c2cc(NC(=O)NCCC[N+](C)(C)C)[n+]3C)cc1"
Result: > 100 µM

Q: Cool, now CC(C)(C)OC(=O)NC(CS(=O)(=O)O)C(=O)O (centres undefined)
Result: > 100 µM

Q: Ok, now Cc1c(O)c(Br)c(C)c(O)c1Br (tested in a mixture with another compound)
Result: 3.09 µM

Q: Next: Cc1ccc([N+](=O)[O-])cc1S(=O)(=O)Nc1ccc(C2=NOC(c3ccccc3O)C2)cc1 (centres undefined)
Result: 9.04 µM

Q: Now try "Nc1c(Br)cc(-c2nc3ccccc3s2)cc1Br" .
Result: > 100 µM
